Reference source: patent US20240043928A1

- procedure details: Phase I study NCT02841540: plasma pharmacokinetics
- Type: in vivo, human
- condition notes: human, oral; 2.0 mg once daily, plasma, geometric mean (CV %)
property label: half-life (min)
Only the number, expressed in min, is required.

If you can, please state the reported half-life value of `C/C(=C\C=C\[C@@H](C)c1ccccn1)[C@H]1OC(=O)C[C@H](O)CC[C@@](C)(O)[C@@H](OC(=O)N2CCN(C)CC2)/C=C/[C@@H]1C` .
324

====

- procedure details: Phase I study NCT02841540: plasma pharmacokinetics
- Type: in vivo, human
- condition notes: human, oral; 14 mg once daily, plasma, median
property label: Tmax (h)
Only the number, expressed in h, is required.

If you can, please state the reported Tmax value of C/C(=C\C=C\[C@@H](C)c1ccccn1)[C@H]1OC(=O)C[C@H](O)CC[C@@](C)(O)[C@@H](OC(=O)N2CCN(C)CC2)/C=C/[C@@H]1C [Compound 1] .
1

====

- procedure details: Phase I study NCT02841540: plasma pharmacokinetics
- Assay type: in vivo, human
- condition notes: human, oral; 12 mg once daily, plasma, geometric mean (CV %)
property label: half-life (h)
Only the number, expressed in h, is required.

If you can, please state the reported half-life value of `C/C(=C\C=C\[C@@H](C)c1ccccn1)[C@H]1OC(=O)C[C@H](O)CC[C@@](C)(O)[C@@H](OC(=O)N2CCN(C)CC2)/C=C/[C@@H]1C` .
5.4

====

- procedure details: Phase I study NCT02841540: plasma pharmacokinetics
- Type: in vivo, human
- condition notes: human; 20 mg once daily, plasma, geometric mean (CV %); read-out: AUC0-24
property label: AUC(0-t) (ng·h/mL)
Only the number, expressed in ng·h/mL, is required.

If you can, please state the reported AUC(0-t) value of `C/C(=C\C=C\[C@@H](C)c1ccccn1)[C@H]1OC(=O)C[C@H](O)CC[C@@](C)(O)[C@@H](OC(=O)N2CCN(C)CC2)/C=C/[C@@H]1C` .
142

====

- procedure details: Phase I study NCT02841540: plasma pharmacokinetics
- Assay type: in vivo, human
- condition notes: human; 30 mg once daily, plasma, geometric mean (CV %)
- Experimental: Plasma samples for PK analyses were collected during Cycle 1 on Day 1 and Day 4 (pre-dose and 0.5, 1, 2, 4, 6, 8, 10, and 24 hours post-dose), and pre-dose and 4 hours post-dose on Cycle 1 on Day 15. PK analyses were conducted using Phoenix® VVinNonlin. […] Baseline splicing mutations were identified using the Focus:Myeloid™ Next Generation Sequencing (NGS) panel determined centrally by Cancer Genetics Inc. (Rutherford, NJ). […]
property label: half-life
Note: a bare number is incomplete; add the unit.

If you can, please state the reported half-life value of `C/C(=C\C=C\[C@@H](C)c1ccccn1)[C@H]1OC(=O)C[C@H](O)CC[C@@](C)(O)[C@@H](OC(=O)N2CCN(C)CC2)/C=C/[C@@H]1C` .
5.3 h

====

- procedure details: Phase I study NCT02841540: plasma pharmacokinetics
- Type: in vivo, human
- condition notes: human, oral; 3.5 mg once daily, plasma, geometric mean (CV %); read-out: AUC0-24
property label: AUC(0-t) (ng·h/mL)
Only the number, expressed in ng·h/mL, is required.

If you can, please state the reported AUC(0-t) value of `C/C(=C\C=C\[C@@H](C)c1ccccn1)[C@H]1OC(=O)C[C@H](O)CC[C@@](C)(O)[C@@H](OC(=O)N2CCN(C)CC2)/C=C/[C@@H]1C` .
15.6
